The entries below come with measured DC50 values attached.
molecular target: PIKfyve (Homo sapiens, UniProt Q9Y2I7); construct: endogenous in cells; host or cells: VCaP; assay: Degradation of PIKfyve proteins in VCaP tumor cells (24 h, Western blot); type: cell-based; conditions: 37° C., compared with DMSO control, WB, read-out: DC50 (concentration that achieves 50% degradation activity)
Sequence (Q9Y2I7 whole entry): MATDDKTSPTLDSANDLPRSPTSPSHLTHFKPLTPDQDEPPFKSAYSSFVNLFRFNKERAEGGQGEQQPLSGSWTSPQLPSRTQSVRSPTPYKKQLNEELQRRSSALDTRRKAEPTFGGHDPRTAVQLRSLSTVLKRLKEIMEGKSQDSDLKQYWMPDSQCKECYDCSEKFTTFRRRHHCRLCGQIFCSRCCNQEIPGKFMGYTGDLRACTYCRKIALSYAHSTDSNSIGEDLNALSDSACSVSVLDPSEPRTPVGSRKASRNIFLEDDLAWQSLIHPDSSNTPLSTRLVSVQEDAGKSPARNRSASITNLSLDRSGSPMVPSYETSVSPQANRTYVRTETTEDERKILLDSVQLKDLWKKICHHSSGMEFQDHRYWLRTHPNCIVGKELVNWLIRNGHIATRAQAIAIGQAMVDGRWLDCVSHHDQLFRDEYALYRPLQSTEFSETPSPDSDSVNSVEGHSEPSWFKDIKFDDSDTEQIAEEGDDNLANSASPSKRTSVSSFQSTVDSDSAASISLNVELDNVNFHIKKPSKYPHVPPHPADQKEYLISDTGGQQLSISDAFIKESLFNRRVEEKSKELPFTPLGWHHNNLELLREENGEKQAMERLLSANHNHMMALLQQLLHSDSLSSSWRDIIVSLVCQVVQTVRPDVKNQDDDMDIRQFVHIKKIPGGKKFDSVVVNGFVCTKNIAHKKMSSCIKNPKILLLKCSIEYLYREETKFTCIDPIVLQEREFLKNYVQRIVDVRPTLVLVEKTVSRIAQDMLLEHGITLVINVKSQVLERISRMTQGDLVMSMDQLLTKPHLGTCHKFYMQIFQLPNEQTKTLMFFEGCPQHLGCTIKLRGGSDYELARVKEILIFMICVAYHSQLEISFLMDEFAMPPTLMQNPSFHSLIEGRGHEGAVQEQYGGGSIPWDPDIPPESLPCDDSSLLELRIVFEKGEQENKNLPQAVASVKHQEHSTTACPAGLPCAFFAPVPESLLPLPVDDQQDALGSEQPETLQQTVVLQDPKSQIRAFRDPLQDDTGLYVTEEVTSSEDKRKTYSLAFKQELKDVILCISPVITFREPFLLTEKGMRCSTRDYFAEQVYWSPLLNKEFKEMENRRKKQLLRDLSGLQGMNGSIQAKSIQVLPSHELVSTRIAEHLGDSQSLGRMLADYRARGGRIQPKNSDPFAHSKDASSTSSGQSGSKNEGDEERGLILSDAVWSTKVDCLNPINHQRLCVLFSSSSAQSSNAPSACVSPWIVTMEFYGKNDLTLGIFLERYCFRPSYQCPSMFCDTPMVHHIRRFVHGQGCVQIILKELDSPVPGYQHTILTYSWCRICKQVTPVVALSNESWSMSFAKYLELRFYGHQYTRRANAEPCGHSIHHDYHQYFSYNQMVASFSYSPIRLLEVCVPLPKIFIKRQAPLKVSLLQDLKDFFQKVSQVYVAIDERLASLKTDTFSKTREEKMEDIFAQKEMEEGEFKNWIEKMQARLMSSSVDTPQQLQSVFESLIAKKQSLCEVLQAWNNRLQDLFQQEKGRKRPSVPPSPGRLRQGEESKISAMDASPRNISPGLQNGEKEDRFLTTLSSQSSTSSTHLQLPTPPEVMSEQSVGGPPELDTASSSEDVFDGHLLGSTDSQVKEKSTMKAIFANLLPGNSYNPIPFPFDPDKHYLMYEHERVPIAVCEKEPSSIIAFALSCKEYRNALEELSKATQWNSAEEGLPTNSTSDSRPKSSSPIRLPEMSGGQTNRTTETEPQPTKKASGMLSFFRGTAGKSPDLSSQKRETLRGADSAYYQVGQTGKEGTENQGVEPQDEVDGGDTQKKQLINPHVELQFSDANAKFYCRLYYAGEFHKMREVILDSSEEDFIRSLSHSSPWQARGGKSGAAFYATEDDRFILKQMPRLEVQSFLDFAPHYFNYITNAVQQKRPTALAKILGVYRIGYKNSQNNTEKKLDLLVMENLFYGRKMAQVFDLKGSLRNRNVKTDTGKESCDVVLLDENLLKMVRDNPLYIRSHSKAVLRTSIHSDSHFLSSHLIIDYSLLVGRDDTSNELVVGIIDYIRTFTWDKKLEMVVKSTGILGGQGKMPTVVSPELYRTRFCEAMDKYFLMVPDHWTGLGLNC

Completed entries (count: 3):
Cc1cccc(/C=N/Nc2cc(N3CCOCC3)nc(OCCc3ccc(NC(=O)CCCCCNC(=O)CC[C@H](NC(=O)[C@@H]4C[C@@H](O)CN4C(=O)[C@@H](NC(=O)C4(F)CC4)C(C)(C)C)c4ccc(-c5scnc5C)cc4)cc3)n2)c1 [Example 52]	1 to 100 nM
Cc1cccc(-c2ccn(-c3cc(N4CCOCC4)nc(OC4CCN(c5ccc(CN6CCN(c7cc8c(cc7F)C(=O)N(C7CCC(=O)NC7=O)C8=O)CC6)cc5)CC4)n3)n2)c1 (stereo not shown) [Example 95]	100 to 10000 nM
Cc1cccc(-c2ccn(-c3cc(N4CCOCC4)nc(OC4CCN(c5ccc(N6CCN(C(=O)CCCC[C@H](NC(=O)[C@@H]7C[C@@H](O)CN7C(=O)[C@@H](NC(=O)C7(F)CC7)C(C)(C)C)c7ccc(-c8scnc8C)cc7)CC6)cc5)CC4)n3)n2)c1 [Example 86]	1 to 100 nM

Q. Param readout= DC50; system= PIKfyve (Homo sapiens, UniProt Q9Y2I7); entry= Cc1cccc(/C=N/Nc2cc(N3CCOCC3)nc(OCCNC(=O)CCCCCCCCC(=O)N[C@H](C(=O)N3C[C@H](O)C[C@H]3C(=O)NCc3ccc(-c4scnc4C)cc3)C(C)(C)C)n2)c1 [Example 64] ; returns value.
A. 100 to 10000 nM

* * *

The entries below come with measured DC50 values attached.
biological target: PIKfyve (Homo sapiens, UniProt Q9Y2I7); construct: endogenous in cells; host or cells: VCaP; assay: Degradation of PIKfyve proteins in VCaP tumor cells (24 h, Western blot); format: cell-based; conditions: 37° C., compared with DMSO control, WB, read-out: DC50 (concentration that achieves 50% degradation activity)

Cc1cccc(/C=N/Nc2cc(N3CCOCC3)nc(OCCc3ccc(NC(=O)CC[C@H](NC(=O)[C@@H]4C[C@@H](O)CN4C(=O)[C@@H](NC(=O)C4(F)CC4)C(C)(C)C)c4ccc(-c5scnc5C)cc4)cc3)n2)c1	1 to 100 nM
Cc1cccc(/C=N/Nc2cc(N3CCOCC3)nc(OCCc3ccc(NC(=O)CSC(C)(C)[C@H](NC(=O)C4(F)CC4)C(=O)N4C[C@H](O)C[C@H]4C(=O)NCc4ccc(-c5scnc5C)cc4)cc3)n2)c1	1 to 100 nM
Cc1cccc(/C=N/Nc2cc(N3CCOCC3)nc(OCCc3ccc(NC(=O)CNC(=O)CSC(C)(C)[C@H](NC(=O)C4(F)CC4)C(=O)N4C[C@H](O)C[C@H]4C(=O)NCc4ccc(-c5scnc5C)cc4)cc3)n2)c1	100 to 10000 nM
Cc1cccc(/C=N/Nc2cc(N3CCOCC3)nc(OCCc3ccc(NC(=O)CCCCC(=O)N[C@H](C(=O)N4C[C@H](O)C[C@H]4C(=O)NCc4ccc(-c5scnc5C)cc4)C(C)(C)C)cc3)n2)c1	1 to 100 nM
Cc1cccc(/C=N/Nc2cc(N3CCOCC3)nc(OCCc3ccc(NC(=O)CCC(=O)Nc4ccc5c(c4)C(=O)N(C4CCC(=O)NC4=O)C5)cc3)n2)c1 (stereo not drawn)	1 to 100 nM

Q. Param readout= DC50; system= PIKfyve (Homo sapiens, UniProt Q9Y2I7); entry= Cc1cccc(/C=N/Nc2cc(N3CCOCC3)nc(OCCc3ccc(NC(=O)CCCCC(=O)N[C@H](C(=O)N4C[C@H](O)C[C@H]4C(=O)N[C@@H](C)c4ccc(-c5scnc5C)cc4)C(C)(C)C)cc3)n2)c1 ; returns value.
A. 1 to 100 nM

Q. Param readout= DC50; system= PIKfyve (Homo sapiens, UniProt Q9Y2I7); entry= Cc1cccc(-c2ccn(-c3cc(N4CCOCC4)nc(OCCc4ccc(C#CC5CCN(C(=O)CC[C@H](NC(=O)[C@@H]6C[C@@H](O)CN6C(=O)[C@@H](NC(=O)C6(F)CC6)C(C)(C)C)c6ccc(-c7scnc7C)cc6)CC5)cc4)n3)n2)c1 ; returns value.
A. 1 to 100 nM

Q. Param readout= DC50; system= PIKfyve (Homo sapiens, UniProt Q9Y2I7); entry= Cc1cccc(/C=N/Nc2cc(N3CCOCC3)nc(OCCc3ccc(NC(=O)CCCCCNc4ccc5c(c4)C(=O)N(C4CCC(=O)NC4=O)C5=O)cc3)n2)c1 (stereo not drawn) ; returns value.
A. 100 to 10000 nM

Q. Param readout= DC50; system= PIKfyve (Homo sapiens, UniProt Q9Y2I7); entry= Cc1cccc(/C=N/Nc2cc(N3CCOCC3)nc(OCCc3ccc(NC(=O)CCCCCC(=O)N[C@H](C(=O)N4C[C@H](O)C[C@H]4C(=O)NCc4ccc(-c5scnc5C)cc4)C(C)(C)C)cc3)n2)c1 ; returns value.
A. 1 to 100 nM
